# System name: CLK1 (human)
# Assay overview: radiometric filter-binding kinase assay, Kinase HotSpot
# Condition notes: compound 0.5 µM; ATP 10 µM
Parameter: residual activity (%)
Expressed in %, but write only the number.

Exam item: Notebook entry, CLK1 (human) assay: residual activity of `Nc1nc(Nc2ccc(S(N)(=O)=O)cc2)nn1C(=S)Nc1c(F)cccc1F` = ?
Marked response: 2.26

Exam item: Please provide the recorded residual activity for `C#Cc1cccc(Nc2ncnc3cc(OCCOC)c(OCCOC)cc23)c1` , tested on CLK1 (human).
Marked response: 107

Exam item: Lab note: need residual activity for `O=C1Nc2cc(Br)ccc2/C1=C1/Nc2ccccc2/C1=N\O` on CLK1 (human), anyone have it?
Marked response: 93.1

Exam item: State its residual activity on CLK1 (human): `CCCNC(=O)Nc1ccc(Oc2ncnc3cc(OC)c(OC)cc23)cc1Cl`
Marked response: 96.2

Exam item: Lab request: please report residual activity under test system CLK1 (human) for `Cc1cc2ncc(-c3ccccc3)nc2cc1C`
Marked response: 95.4

Exam item: Recall the recorded residual activity for `O=C(Nc1ccc(Cl)cc1)c1ccccc1NCc1ccncc1` with CLK1 (human) and state it.
Marked response: 102

Exam item: Give CLK1 (human) residual activity for CS(=O)c1ccc(-c2nc(-c3ccc(F)cc3)c(-c3ccncc3)[nH]2)cc1 (stereo not given)
Marked response: 101

Exam item: Form: Entry = `Nc1n[nH]c2nnc(-c3c(-c4ccccc4)nn4ccccc34)cc12` | System = CLK1 (human) | residual activity = ____
Marked response: 108

Exam item: Please tell me: residual activity of `COc1ccc(-c2cnc3c(-c4ccsc4)cnn3c2)cc1` , system CLK1 (human)?
Marked response: 82.8

Exam item: Hi! What's the reported residual activity for `COc1cc2nccc(Oc3ccc(NC(=S)NC(=O)c4ccccc4C)cc3)c2cc1OC` on CLK1 (human)?
Marked response: 89.9

Exam item: Lab note: need residual activity for `NC(=O)c1ccc(N(C(N)=O)c2c(F)cccc2F)nc1-c1ccc(F)cc1F` on CLK1 (human), anyone have it?
Marked response: 108

Exam item: Lab request: please report residual activity under test system CLK1 (human) for `O=c1cc(-c2cccc3c2Sc2ccccc2S3)oc(N2CCOCC2)c1`
Marked response: 103

Exam item: Please state recorded residual activity (tested on CLK1 (human)) of O=C(NC(NC(=S)Nc1ccc(F)c([N+](=O)[O-])c1)C(Cl)(Cl)Cl)C(c1ccccc1)c1ccccc1 (stereo not given)
Marked response: 106

Exam item: For the record `O=c1cc(N2CCNCC2)oc2c(-c3ccccc3)cccc12` , what value of residual activity is listed for CLK1 (human)?
Marked response: 102

Exam item: Under CLK1 (human): residual activity value of `CC(C)(C)c1nc2c3ccc(F)cc3c3c(=O)[nH]ccc3c2[nH]1` ?
Marked response: 81.6

Exam item: Please provide the recorded residual activity for `CC(C)[C@H](CO)Nc1nc(Nc2cccc(Cl)c2)c2ncn(C(C)C)c2n1` , tested on CLK1 (human).
Marked response: 67.5

Exam item: Find the measured residual activity: item `O=C1Cc2c([nH]c3ccc([N+](=O)[O-])cc23)-c2ccccc2N1` , target or system CLK1 (human).
Marked response: 111

Exam item: What value of residual activity on CLK1 (human) does CSc1nc(-c2ccc(F)cc2)c(-c2ccnc(NC(C)c3ccccc3)c2)[nH]1 (stereo not given) have?
Marked response: 96.8

Exam item: Short answer please: residual activity, CLK1 (human), entry `Nc1nc(Nc2ccc(S(N)(=O)=O)cc2)nn1C(=O)c1c(F)cccc1F`
Marked response: 85.1

Exam item: Quick check: residual activity on CLK1 (human), item `CC(C)n1cnc2c(Nc3cccc(Cl)c3)nc(NCCO)nc21` ?
Marked response: 77.9

Exam item: Find residual activity (CLK1 (human)) for the entry `Clc1ccc(Nc2nnc(Cc3ccncc3)c3ccccc23)cc1`
Marked response: 110

Exam item: Any idea what residual activity came out for `Cc1ccc(NC(=O)c2ccc(CN3CCN(C)CC3)cc2)cc1Nc1nc(-c2cccnc2)cs1` on CLK1 (human)?
Marked response: 101

Exam item: Identify the measured residual activity of `O=C1Nc2ccccc2/C1=C\c1c(Cl)[nH]c2ccccc12` for CLK1 (human).
Marked response: 103

Exam item: Requested read-out residual activity, target or system CLK1 (human), entry `Oc1ccc(-c2nc(-c3ccc(F)cc3)c(-c3ccncc3)[nH]2)cc1`
Marked response: 107

Exam item: Item: `COc1cc2ncnc(Nc3ccc(F)c(Cl)c3)c2cc1OCCCN1CCOCC1` Test system: CLK1 (human) Read-out: residual activity Value: ?
Marked response: 105
